Reported Kd by item:
study target: T1, Factor VIIIa (FVIIIa), from recombinant FVIII (Kogenate FS; Bayer healthcare) activated with alpha-thrombin (UniProt P00451 20-2351)
T1 sequence (looked up): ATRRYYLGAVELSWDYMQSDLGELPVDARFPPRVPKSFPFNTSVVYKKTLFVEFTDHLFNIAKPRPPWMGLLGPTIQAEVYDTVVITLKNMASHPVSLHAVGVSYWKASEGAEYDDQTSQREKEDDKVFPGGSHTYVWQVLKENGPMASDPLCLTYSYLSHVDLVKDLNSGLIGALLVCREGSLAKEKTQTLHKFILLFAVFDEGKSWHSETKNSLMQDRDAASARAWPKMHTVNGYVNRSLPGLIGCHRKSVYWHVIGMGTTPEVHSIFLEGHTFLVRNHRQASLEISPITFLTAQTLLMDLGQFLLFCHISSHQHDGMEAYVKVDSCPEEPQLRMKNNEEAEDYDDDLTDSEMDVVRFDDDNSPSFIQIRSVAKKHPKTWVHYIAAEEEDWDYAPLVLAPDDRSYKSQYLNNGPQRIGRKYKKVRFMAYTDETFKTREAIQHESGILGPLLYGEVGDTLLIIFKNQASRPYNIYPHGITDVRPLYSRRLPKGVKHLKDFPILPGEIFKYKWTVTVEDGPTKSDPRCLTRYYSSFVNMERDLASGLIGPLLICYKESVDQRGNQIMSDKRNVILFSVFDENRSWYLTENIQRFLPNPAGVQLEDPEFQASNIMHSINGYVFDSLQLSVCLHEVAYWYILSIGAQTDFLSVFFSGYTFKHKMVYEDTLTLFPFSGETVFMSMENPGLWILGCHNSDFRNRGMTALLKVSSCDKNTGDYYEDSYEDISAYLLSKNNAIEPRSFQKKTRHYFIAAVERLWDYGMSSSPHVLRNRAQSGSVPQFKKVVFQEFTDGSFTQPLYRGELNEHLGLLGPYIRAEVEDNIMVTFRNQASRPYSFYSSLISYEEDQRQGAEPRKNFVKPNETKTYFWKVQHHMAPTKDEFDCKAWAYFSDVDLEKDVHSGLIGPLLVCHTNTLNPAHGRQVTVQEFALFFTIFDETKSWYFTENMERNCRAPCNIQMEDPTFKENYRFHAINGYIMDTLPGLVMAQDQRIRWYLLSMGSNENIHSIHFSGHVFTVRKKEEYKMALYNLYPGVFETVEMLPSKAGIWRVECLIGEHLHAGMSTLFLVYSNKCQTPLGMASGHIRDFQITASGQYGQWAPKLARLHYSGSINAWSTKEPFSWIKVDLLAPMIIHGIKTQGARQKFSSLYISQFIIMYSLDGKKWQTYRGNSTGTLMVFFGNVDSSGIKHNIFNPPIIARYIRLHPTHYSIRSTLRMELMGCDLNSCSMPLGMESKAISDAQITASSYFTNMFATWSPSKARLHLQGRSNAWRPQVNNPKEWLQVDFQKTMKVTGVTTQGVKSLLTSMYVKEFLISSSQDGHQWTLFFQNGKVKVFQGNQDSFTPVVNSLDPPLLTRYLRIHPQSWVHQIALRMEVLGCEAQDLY
test name: apparent functional KD (KD-app): FX activation rate vs FVIIIa titration, fluorogenic Xase assay with PC/PS vesicles and Ca2+
Answer with a number only, understood to be in nM.

Use these answered entries as a reference point.
binder	Kd [nM]
FIXa variant K247N/N249S/N260S (enzyme, also called K82N/N84S/N95S) light: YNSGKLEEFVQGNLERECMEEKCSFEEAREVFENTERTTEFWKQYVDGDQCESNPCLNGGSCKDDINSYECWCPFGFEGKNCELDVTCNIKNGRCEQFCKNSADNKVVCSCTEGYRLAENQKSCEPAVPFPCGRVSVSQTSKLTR heavy: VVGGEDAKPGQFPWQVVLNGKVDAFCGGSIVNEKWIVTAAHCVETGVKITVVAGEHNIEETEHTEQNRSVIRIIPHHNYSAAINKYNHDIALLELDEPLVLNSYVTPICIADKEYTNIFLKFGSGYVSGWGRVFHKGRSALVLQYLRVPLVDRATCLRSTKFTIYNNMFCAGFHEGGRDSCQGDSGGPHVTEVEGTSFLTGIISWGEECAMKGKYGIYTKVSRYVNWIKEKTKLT	147
FIXa variant R318Y/R338E/T343R/R403E/E410N (enzyme, also called R150Y/R170E/T175R/R233E/E240N) light: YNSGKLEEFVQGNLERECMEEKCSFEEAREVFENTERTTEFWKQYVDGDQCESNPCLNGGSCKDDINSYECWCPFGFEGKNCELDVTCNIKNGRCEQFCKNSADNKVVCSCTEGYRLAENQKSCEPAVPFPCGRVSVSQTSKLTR heavy: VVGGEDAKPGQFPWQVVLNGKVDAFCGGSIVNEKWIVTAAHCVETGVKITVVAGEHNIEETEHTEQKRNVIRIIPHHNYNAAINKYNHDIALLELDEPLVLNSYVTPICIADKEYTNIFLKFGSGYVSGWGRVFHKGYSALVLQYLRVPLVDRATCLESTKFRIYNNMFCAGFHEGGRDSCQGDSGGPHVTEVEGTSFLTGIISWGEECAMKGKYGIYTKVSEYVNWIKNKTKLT	14.5
FIXa variant K247N/N249S/R318Y/R338E/R403E/E410N (enzyme, also called K82N/N84S/R150Y/R170E/R233E/E240N) light: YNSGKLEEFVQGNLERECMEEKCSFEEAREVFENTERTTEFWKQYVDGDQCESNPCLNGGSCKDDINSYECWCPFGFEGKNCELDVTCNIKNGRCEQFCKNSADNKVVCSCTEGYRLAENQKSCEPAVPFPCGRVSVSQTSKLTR heavy: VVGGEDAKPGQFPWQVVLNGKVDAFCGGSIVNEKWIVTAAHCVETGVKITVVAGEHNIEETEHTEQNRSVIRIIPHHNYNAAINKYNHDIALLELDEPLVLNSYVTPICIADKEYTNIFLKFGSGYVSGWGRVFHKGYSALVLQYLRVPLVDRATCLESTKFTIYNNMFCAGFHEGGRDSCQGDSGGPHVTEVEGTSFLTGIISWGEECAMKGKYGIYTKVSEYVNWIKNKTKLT	68.6
FIXa variant Y155F/K247N/N249S/N260S (enzyme) light: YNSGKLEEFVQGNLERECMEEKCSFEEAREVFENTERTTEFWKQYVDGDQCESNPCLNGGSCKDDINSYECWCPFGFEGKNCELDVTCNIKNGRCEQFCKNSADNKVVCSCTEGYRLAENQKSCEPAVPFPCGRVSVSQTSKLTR heavy: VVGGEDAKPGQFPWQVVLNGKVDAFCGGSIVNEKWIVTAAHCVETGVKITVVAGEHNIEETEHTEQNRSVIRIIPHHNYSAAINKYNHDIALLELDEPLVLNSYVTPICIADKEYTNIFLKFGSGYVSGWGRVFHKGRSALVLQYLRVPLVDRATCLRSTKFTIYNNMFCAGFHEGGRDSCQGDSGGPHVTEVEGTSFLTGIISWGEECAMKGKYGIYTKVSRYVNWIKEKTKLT	167
FIXa variant R318Y/R338E/N346D/R403E/E410N (enzyme, also called R150Y/R170E/N178D/R233E/E240N) light: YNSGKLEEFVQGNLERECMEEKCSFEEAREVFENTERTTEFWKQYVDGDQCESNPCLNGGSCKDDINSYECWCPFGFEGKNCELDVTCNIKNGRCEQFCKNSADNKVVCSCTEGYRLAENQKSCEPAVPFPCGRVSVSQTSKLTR heavy: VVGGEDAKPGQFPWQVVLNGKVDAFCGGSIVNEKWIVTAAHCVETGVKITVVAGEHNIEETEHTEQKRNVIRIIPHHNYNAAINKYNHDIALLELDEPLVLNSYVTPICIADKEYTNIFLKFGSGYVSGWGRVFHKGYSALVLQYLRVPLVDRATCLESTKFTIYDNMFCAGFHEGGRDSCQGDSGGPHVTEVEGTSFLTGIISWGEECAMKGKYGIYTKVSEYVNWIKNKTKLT	110

In plain terms, FIXa variant A103N/N105S/K247N/N249S/R318Y/R338E/R403E/E410N (enzyme) light: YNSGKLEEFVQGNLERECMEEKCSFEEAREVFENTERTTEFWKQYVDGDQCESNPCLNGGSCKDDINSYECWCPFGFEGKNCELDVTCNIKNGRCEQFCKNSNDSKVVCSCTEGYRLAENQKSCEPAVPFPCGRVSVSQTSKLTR heavy: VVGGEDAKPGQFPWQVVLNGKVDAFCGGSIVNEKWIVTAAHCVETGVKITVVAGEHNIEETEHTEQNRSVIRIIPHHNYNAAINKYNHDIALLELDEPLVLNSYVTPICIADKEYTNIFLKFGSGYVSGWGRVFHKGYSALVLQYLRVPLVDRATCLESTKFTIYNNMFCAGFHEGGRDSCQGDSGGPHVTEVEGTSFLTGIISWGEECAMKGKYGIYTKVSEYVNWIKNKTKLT has a documented Kd of 93.1

In plain terms, FIXa variant Y259F/K265T/Y345T (enzyme, also called Y94F/K98T/Y177T) light: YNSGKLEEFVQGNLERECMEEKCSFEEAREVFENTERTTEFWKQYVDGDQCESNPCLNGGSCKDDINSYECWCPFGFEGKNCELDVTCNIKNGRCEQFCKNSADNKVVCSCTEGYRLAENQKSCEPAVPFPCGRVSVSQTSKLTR heavy: VVGGEDAKPGQFPWQVVLNGKVDAFCGGSIVNEKWIVTAAHCVETGVKITVVAGEHNIEETEHTEQKRNVIRIIPHHNFNAAINTYNHDIALLELDEPLVLNSYVTPICIADKEYTNIFLKFGSGYVSGWGRVFHKGRSALVLQYLRVPLVDRATCLRSTKFTITNNMFCAGFHEGGRDSCQGDSGGPHVTEVEGTSFLTGIISWGEECAMKGKYGIYTKVSRYVNWIKEKTKLT has a documented Kd of 115
